TGT: purified HLA DRB1*0802 (Homo sapiens, UniProt P01903+P01911, A100R/A103L/A169T/F76Y/H45Y/I96F/K41T/L162R/M171V/P40S/Q125H/Q178H/Q39Y/Q99D/R218S/R42G/S66Y/V115G/W38E)
Construct: purified from EBV transformed homozygous cell lines or single MHC allele transfected 721.221, C1R, or fibroblast lines; made in house
METHOD: HLA-DR radioligand binding inhibition assay, DRB1*0802
COND: IC50 nM purified HLA DRB1 *0802, purified HLA DRB1*0802
OBSERVABLE: IC50

Sample records with IC50:
CC[C@H](C)[C@H](NC(=O)[C@H](CS)NC(=O)[C@H](CC(C)C)NC(=O)[C@H](CCCCN)NC(=O)[C@H](CCC(=O)O)NC(=O)[C@H](C)NC(=O)[C@@H](NC(=O)[C@H](CC(C)C)NC(=O)[C@@H]1CCCN1C(=O)[C@@H](NC(=O)[C@@H](N)[C@@H](C)O)[C@@H](C)CC)[C@@H](C)O)C(=O)N[C@@H](Cc1ccc(O)cc1)C(=O)N[C@H](C(=O)N[C@@H](CC(=O)O)C(=O)N[C@@H](CC(N)=O)C(=O)O)[C@@H](C)O [Peptide 1622.01] :: > 20000 nM
CC[C@H](C)[C@H](NC(=O)[C@H](CO)NC(=O)[C@@H]1CCCN1C(=O)[C@H](CCCCN)NC(=O)[C@@H]1CCCN1C(=O)[C@H](CC(C)C)NC(=O)[C@H](CCC(=O)O)NC(=O)[C@H](C)NC(=O)[C@H](CO)NC(=O)[C@@H](NC(=O)[C@@H](NC(=O)[C@@H](NC(=O)[C@@H](N)[C@@H](C)O)[C@@H](C)CC)[C@@H](C)O)C(C)C)C(=O)N[C@@H](CO)C(=O)N[C@@H](CO)C(=O)O [Peptide 9019.0132] :: > 20000 nM
CC[C@H](C)[C@H](NC(=O)[C@@H](NC(=O)[C@@H]1CCCN1C(=O)[C@H](C)N)[C@@H](C)O)C(=O)N[C@@H](CCCNC(=N)N)C(=O)NCC(=O)N[C@@H](CC(=O)O)C(=O)N1CCC[C@H]1C(=O)N[C@@H](CCC(=O)O)C(=O)N[C@@H](CS)C(=O)N[C@@H](Cc1c[nH]cn1)C(=O)N[C@@H](CC(C)C)C(=O)N[C@@H](Cc1ccccc1)C(=O)N[C@@H](Cc1ccc(O)cc1)C(=O)N[C@@H](CC(N)=O)C(=O)O [Peptide 9019.0022] :: > 20000 nM
CC[C@H](C)[C@H](NC(=O)[C@H](CS)NC(=O)[C@H](Cc1c[nH]c2ccccc12)NC(=O)[C@@H](N)CCCNC(=N)N)C(=O)N1CCC[C@H]1C(=O)N[C@@H](Cc1c[nH]c2ccccc12)C(=O)N[C@@H](CCC(N)=O)C(=O)N[C@@H](CCCNC(=N)N)C(=O)N[C@@H](CC(C)C)C(=O)N[C@@H](CC(C)C)C(=O)N[C@@H](CC(C)C)C(=O)N[C@H](C(=O)N[C@@H](C)C(=O)N[C@@H](CO)C(=O)N[C@@H](CC(C)C)C(=O)O)[C@@H](C)O [Peptide 9019.0104] :: 263 nM
CC[C@H](C)[C@H](NC(=O)[C@@H](NC(=O)[C@H](Cc1c[nH]cn1)NC(=O)[C@@H](N)CC(C)C)C(C)C)C(=O)N[C@@H](CCCCN)C(=O)N[C@@H](CO)C(=O)N[C@@H](CC(=O)O)C(=O)N[C@@H](CC(C)C)C(=O)N[C@H](C(=O)N[C@@H](CC(N)=O)C(=O)N[C@@H](CCC(=O)O)C(=O)N[C@@H](CCC(=O)O)C(=O)N[C@@H](C)C(=O)N[C@H](C(=O)NCC(=O)O)[C@@H](C)O)C(C)C [Peptide 9019.0005] :: > 20000 nM

Could you now look at the following molecule, please?
Query block: Given CSCC[C@H](NC(=O)[C@H](C)NC(=O)[C@@H](N)CCCNC(=N)N)C(=O)N[C@@H](CC(C)C)C(=O)N[C@@H](CCCCN)C(=O)N[C@@H](C)C(=O)N[C@@H](CCC(=O)O)C(=O)N[C@@H](CCC(=O)O)C(=O)N[C@H](C(=O)N[C@@H](CS)C(=O)N[C@@H](C)C(=O)N1CCC[C@H]1C(=O)N[C@@H](CO)C(=O)N[C@H](C(=O)N[C@@H](CO)C(=O)O)C(C)C)[C@@H](C)O [Peptide 9019.0148] , respond with its IC50.
Result block: > 20000 nM
